B1: glmS ribozyme (parent)
chain: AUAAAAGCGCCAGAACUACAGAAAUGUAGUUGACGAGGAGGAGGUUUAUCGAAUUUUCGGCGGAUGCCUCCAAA

variants of: B1; experiment: self-cleavage kobs at 40 uM GlcN6P; higher = faster cleavage; RNA array; conditions: with glucosamine-6-phosphate
This sample holds only a part of the variants without activity.
RECORDED ENDPOINT: self-cleavage kobs at 40 uM GlcN6P

Examples from the recorded data:
MUTANT ID	RECORDED ENDPOINT	RESULT
A23C C71U	self-cleavage kobs at 40 uM GlcN6P	0.00121 s⁻¹
U31G G44A	self-cleavage kobs at 40 uM GlcN6P	< 1e-05 s⁻¹
A12U A64G	self-cleavage kobs at 40 uM GlcN6P	0.000953 s⁻¹
U69A	self-cleavage kobs at 40 uM GlcN6P	0.000341 s⁻¹

## Input Reported self-cleavage kobs at 40 uM GlcN6P for C58U C61U : what is it?
## Output < 1e-05 s⁻¹

## Input A48C G66C ?
## Output < 1e-05 s⁻¹

## Input A6G A12G U31A U54A C71A ?
## Output < 1e-05 s⁻¹

## Input A6G C50G A53G C58U ?
## Output 0.000224 s⁻¹

## Input A14G G38A ?
## Output < 1e-05 s⁻¹

Reference for the values: the supplement of paper PMC7125110
